# experimentSummary: in vitro
# Format: cell-based
# experimentalParameters: human, cem cells, CC50 (50% cytostatic concentration), Table 2B; CEM cell proliferation; averages of 2 to 3 independent experiments
measuredMetric: CC50

Take a look at these entries with their results.
- structureNotation: "Cc1ccoc1C(=S)Nc1ccc(Cl)c(C=NOC(C)C)c1"
  CC50: "3.1 µg/mL"
- structureNotation: "Cc1occc1C(=S)Nc1ccc(Cl)c(OCC(=O)OC(C)(C)C)c1"
  CC50: "4.3 µg/mL"
- structureNotation: "CCOC(=O)CSc1cc(NC(=S)c2ccoc2C)ccc1Cl"
  CC50: "≥ 100 µg/mL"

Record CC50 per entry; entries follow.
1. O=C(OC1CCCCC1)c1cc(NC(=S)c2ccccc2Cl)ccc1Cl
2. CCC1=C(C(=O)Nc2ccc(Cl)c(C(=O)OC3CCCCC3)c2)SCCO1
3. CC(C)C(OC(=O)c1cc(NC(=S)c2ccccc2F)ccc1Cl)C(C)C
4. Cc1sccc1C(=S)Nc1ccc(Cl)c(SCC(=O)OC(C)(C)C)c1
5. Cc1occc1C(=O)Nc1ccc(Cl)c(C(=O)OC(C)C)c1
6. CCOC(=O)c1cc(NC(=S)c2ccoc2C)ccc1C

Response:
8.3 µg/mL
11.4 µg/mL
7.5 µg/mL
5.4 µg/mL
3.8 µg/mL
16 µg/mL

###

# Test system: CEM cells
# experimentSummary: in vitro
# Type: cell-based
# experimentalParameters: Table 2B; CEM cell proliferation; averages of 2 to 3 independent experiments
measuredMetric: CC50 (50% cytostatic concentration) (µg/mL)
One number for each entry, in µg/mL.

Take a look at these entries with their results.
- compound: "Cc1occc1C(=S)Nc1ccc(Cl)c(C=NOC(C)(C)C)c1 [Compound 114]"
  system: "CEM cells"
  result: 5.8
- compound: "Cc1sccc1C(=S)Nc1ccc(Cl)c(C(=O)OC2CCCCC2)c1 [Compound 9]"
  system: "CEM cells"
  result: 6.0
- compound: "Cc1sccc1C(=S)Nc1ccc(Cl)c(C(=O)OC2CCCCC2)c1 [Compound 59]"
  system: "CEM cells"
  result: 15

Query: What value of measured CC50 (50% cytostatic concentration) is listed for Cc1sccc1C(=O)Nc1ccc(Cl)c(C(=O)OC2CCCCC2)c1 [Compound 58] ?
Response: 6.5

###

# experimentSummary: in vitro
# Type: cell-based
# experimentalParameters: human, cem cells, CC50 (50% cytostatic concentration), Table 2B; CEM cell proliferation; averages of 2 to 3 independent experiments
For each record, check the reported CC50: if it is below 5 µg/mL write yes, else write no.

Please review the entries below; each comes with its answer.
- compound: "Cc1sccc1C(=S)Nc1ccc(Cl)c(OCCC(C)C)c1 [Compound 12]"
  classAssignment: "no"
- compound: "CON=Cc1cc(NC(=S)c2ccoc2C)ccc1OC [Compound 4]"
  classAssignment: "no"

Query: Take the compound Cc1occc1C(=S)Nc1ccc(Cl)c(OCC(C)(C)C)c1 [Compound 39] and say whether its CC50 is less than 5 µg/mL.
Response: yes

Query: Take the compound Cc1ccoc1C(=S)Nc1ccc(Cl)c(C(=O)OC(C)C)c1 [Compound 87] and say whether its CC50 is less than 5 µg/mL.
Response: no

Query: Take the compound CC=CCOc1cc(NC(=O)c2ccoc2C)ccc1Cl [Compound 40] and say whether its CC50 is less than 5 µg/mL.
Response: no

Query: Take the compound CC(C)C(OC(=O)c1cc(NC(=S)c2cccn2C)ccc1Cl)C(C)C [Compound 100] and say whether its CC50 is less than 5 µg/mL.
Response: no

Query: Take the compound CC=CCSc1cc(NC(=S)c2ccoc2C)ccc1Cl [Compound 6] and say whether its CC50 is less than 5 µg/mL.
Response: yes

Query: Take the compound CC(C)OC(=O)c1cc(NC(=S)c2ccco2)ccc1Cl [Compound 86] and say whether its CC50 is less than 5 µg/mL.
Response: no

Query: Take the compound C=CC(C)(C)OC(=O)c1cc(NC(=S)c2ccoc2C)ccc1Cl [Compound 110] and say whether its CC50 is less than 5 µg/mL.
Response: no

Query: Take the compound O=C(OC1CCCCC1)c1cc(NC(=S)c2ccsc2)ccc1Cl [Compound 79] and say whether its CC50 is less than 5 µg/mL.
Response: yes
